Species: Rattus norvegicus
protocol: Open TG-GATES - Regimen: Single
Type: toxicity, organism-based, Sprague-Dawley
Parameters: regimen Single, gender Male, age 6 weeks
applied-conditions: in vivo, po, 0 mg/kg, 9 h, tissue Plasma, route gavage, dose level Control
observation-type: IP (mg/dL)

[[record]]
compound = "O=C1CN(/N=C/c2ccc(-c3ccc([N+](=O)[O-])cc3)o2)C(O)=N1"
observation_type = "IP"
result_units = "mg/dL"
endpoint_result = 10.4

[[record]]
compound = "CS(=O)(=O)Nc1ccc([N+](=O)[O-])cc1Oc1ccccc1 [NIMESULIDE]"
observation_type = "IP"
result_units = "mg/dL"
endpoint_result = 10.3

[[record]]
compound = "S=C=Nc1cccc2ccccc12 [1-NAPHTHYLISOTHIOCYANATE]"
observation_type = "IP"
result_units = "mg/dL"
endpoint_result = 10.3

[[record]]
compound = "COc1ccc(O)c(C(C)(C)C)c1.COc1ccc(O)cc1C(C)(C)C [BUTYLATED HYDROXYANISOLE]"
observation_type = "IP"
result_units = "mg/dL"
endpoint_result = 10.2

[[record]]
compound = "Cn1cnc([N+](=O)[O-])c1Sc1ncnc2nc[nH]c12"
observation_type = "IP"
result_units = "mg/dL"
endpoint_result = 9.5

[[record]]
compound = "Cc1cccc(Nc2cc(Cl)nc(SCC(=O)O)n2)c1C"
observation_type = "IP"
result_units = "mg/dL"
endpoint_result = 10.7

[[record]]
compound = "CNCCC(Oc1ccc(C(F)(F)F)cc1)c1ccccc1.Cl (stereo not given) [FLUOXETINE HYDROCHLORIDE]"
observation_type = "IP"
result_units = "mg/dL"
endpoint_result = 10.2

[[record]]
compound = "C=CCO"
observation_type = "IP"
result_units = "mg/dL"
endpoint_result = 10.7

[[record]]
compound = "Cc1cnc(NC(=O)C2=C(O)c3ccccc3S(=O)(=O)N2C)s1"
observation_type = "IP"
result_units = "mg/dL"
endpoint_result = 9.5

[[record]]
compound = "COc1ccc(Cl)cc1C(=O)NCCc1ccc(S(=O)(=O)NC(=O)NC2CCCCC2)cc1 [GLYBURIDE]"
observation_type = "IP"
result_units = "mg/dL"
endpoint_result = 11.1


* * *

In this section, each of the molecules is paired with its reported Plat.
Species on record: Rattus norvegicus
protocol: Open TG-GATES - Regimen: Single
Format: toxicity, organism-based, Sprague-Dawley
Design: regimen Single, gender Male, age 6 weeks
applied-conditions: in vivo, po, 0 mg/kg, 6 h, tissue Blood, route gavage, dose level Control
observation-type: Plat (x10_4/uL)

[[record]]
molecule = "CS(=O)(=O)Nc1ccc([N+](=O)[O-])cc1Oc1ccccc1 [NIMESULIDE]"
result_units = "x10_4/uL"
endpoint_result = 116.9

[[record]]
molecule = "COc1ccc(O)c(C(C)(C)C)c1.COc1ccc(O)cc1C(C)(C)C [BUTYLATED HYDROXYANISOLE]"
result_units = "x10_4/uL"
endpoint_result = 145.4

[[record]]
molecule = "Cc1cccc(Nc2cc(Cl)nc(SCC(=O)O)n2)c1C"
result_units = "x10_4/uL"
endpoint_result = 115

[[record]]
molecule = "S=C=Nc1cccc2ccccc12 [1-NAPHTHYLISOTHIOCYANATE]"
result_units = "x10_4/uL"
endpoint_result = 128

[[record]]
molecule = "COc1ccc(Cl)cc1C(=O)NCCc1ccc(S(=O)(=O)NC(=O)NC2CCCCC2)cc1 [GLYBURIDE]"
result_units = "x10_4/uL"
endpoint_result = 122.5

[[record]]
molecule = "O=C1NC(=O)C(c2ccccc2)(c2ccccc2)N1"
result_units = "x10_4/uL"
endpoint_result = 121.6

[[record]]
molecule = "Cn1cnc([N+](=O)[O-])c1Sc1ncnc2nc[nH]c12"
result_units = "x10_4/uL"
endpoint_result = 124.9

[[record]]
molecule = "C=CCO"
result_units = "x10_4/uL"
endpoint_result = 124.2


* * *

Reported TG is given for each of the following compounds.
Organism: Rattus norvegicus
protocol: Open TG-GATES - Regimen: Single
Format: toxicity, organism-based, Sprague-Dawley
Set-up: regimen Single, gender Male, age 6 weeks
applied-conditions: in vivo, po, 0 mg/kg, 3 h, tissue Plasma, route gavage, dose level Control
observation-type: TG (mg/dL)

[[record]]
compound = "Cc1cccc(Nc2cc(Cl)nc(SCC(=O)O)n2)c1C"
endpoint_result = 121

[[record]]
compound = "COc1ccc(Cl)cc1C(=O)NCCc1ccc(S(=O)(=O)NC(=O)NC2CCCCC2)cc1 [GLYBURIDE]"
endpoint_result = 160.2

[[record]]
compound = "O=C1CN(/N=C/c2ccc(-c3ccc([N+](=O)[O-])cc3)o2)C(O)=N1"
endpoint_result = 47

[[record]]
compound = "C=CCO"
endpoint_result = 186.2

[[record]]
compound = "CNCCC(Oc1ccc(C(F)(F)F)cc1)c1ccccc1.Cl (stereo unspecified) [FLUOXETINE HYDROCHLORIDE]"
endpoint_result = 81.8

[[record]]
compound = "COc1ccc(O)c(C(C)(C)C)c1.COc1ccc(O)cc1C(C)(C)C [BUTYLATED HYDROXYANISOLE]"
endpoint_result = 84.6

[[record]]
compound = "CS(=O)(=O)Nc1ccc([N+](=O)[O-])cc1Oc1ccccc1 [NIMESULIDE]"
endpoint_result = 57.4

[[record]]
compound = "S=C=Nc1cccc2ccccc12 [1-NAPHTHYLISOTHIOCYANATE]"
endpoint_result = 82.2

[[record]]
compound = "Cn1cnc([N+](=O)[O-])c1Sc1ncnc2nc[nH]c12"
endpoint_result = 46

[[record]]
compound = "Cc1cnc(NC(=O)C2=C(O)c3ccccc3S(=O)(=O)N2C)s1"
endpoint_result = 61.6

[[record]]
compound = "O=C1NC(=O)C(c2ccccc2)(c2ccccc2)N1"
endpoint_result = 61.4


* * *

# ALT annotations
Species on record: Rattus norvegicus
protocol: Open TG-GATES - Regimen: Single
Assay type: toxicity, organism-based, Sprague-Dawley
Set-up: regimen Single, gender Male, age 6 weeks
applied-conditions: in vivo, po, 0 mg/kg, 3 h, tissue Plasma, route gavage, dose level Control
observation-type: ALT (IU/L)

[[record]]
compound = "COc1ccc(Cl)cc1C(=O)NCCc1ccc(S(=O)(=O)NC(=O)NC2CCCCC2)cc1 [GLYBURIDE]"
result_units = "IU/L"
endpoint_result = 41.8

[[record]]
compound = "O=C1CN(/N=C/c2ccc(-c3ccc([N+](=O)[O-])cc3)o2)C(O)=N1"
result_units = "IU/L"
endpoint_result = 36.2

[[record]]
compound = "S=C=Nc1cccc2ccccc12 [1-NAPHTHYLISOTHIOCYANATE]"
result_units = "IU/L"
endpoint_result = 37.6

[[record]]
compound = "Cc1cnc(NC(=O)C2=C(O)c3ccccc3S(=O)(=O)N2C)s1"
result_units = "IU/L"
endpoint_result = 37.6

[[record]]
compound = "COc1ccc(O)c(C(C)(C)C)c1.COc1ccc(O)cc1C(C)(C)C [BUTYLATED HYDROXYANISOLE]"
result_units = "IU/L"
endpoint_result = 41.4

[[record]]
compound = "C=CCO"
result_units = "IU/L"
endpoint_result = 41.2

[[record]]
compound = "Cc1cccc(Nc2cc(Cl)nc(SCC(=O)O)n2)c1C"
result_units = "IU/L"
endpoint_result = 48.6

[[record]]
compound = "O=C1NC(=O)C(c2ccccc2)(c2ccccc2)N1"
result_units = "IU/L"
endpoint_result = 37

[[record]]
compound = "CNCCC(Oc1ccc(C(F)(F)F)cc1)c1ccccc1.Cl (stereo unspecified) [FLUOXETINE HYDROCHLORIDE]"
result_units = "IU/L"
endpoint_result = 37.8

[[record]]
compound = "Cn1cnc([N+](=O)[O-])c1Sc1ncnc2nc[nH]c12"
result_units = "IU/L"
endpoint_result = 46.8

[[record]]
compound = "CS(=O)(=O)Nc1ccc([N+](=O)[O-])cc1Oc1ccccc1 [NIMESULIDE]"
result_units = "IU/L"
endpoint_result = 37.4


* * *

Below, each of the molecules is paired with its reported WBC value.
Organism: Rattus norvegicus
protocol: Open TG-GATES - Regimen: Single
Assay type: toxicity, organism-based, Sprague-Dawley
Set-up: regimen Single, gender Male, age 6 weeks
applied-conditions: in vivo, po, 0 mg/kg, 24 h, tissue Blood, route gavage, dose level Control
observation-type: WBC (x10_2/uL)

[[record]]
molecule = "COc1ccc(O)c(C(C)(C)C)c1.COc1ccc(O)cc1C(C)(C)C [BUTYLATED HYDROXYANISOLE]"
result_units = "x10_2/uL"
endpoint_result = 82.5

[[record]]
molecule = "O=C1CN(/N=C/c2ccc(-c3ccc([N+](=O)[O-])cc3)o2)C(O)=N1"
result_units = "x10_2/uL"
endpoint_result = 91.9

[[record]]
molecule = "COc1ccc(Cl)cc1C(=O)NCCc1ccc(S(=O)(=O)NC(=O)NC2CCCCC2)cc1 [GLYBURIDE]"
result_units = "x10_2/uL"
endpoint_result = 105.9

[[record]]
molecule = "O=C1NC(=O)C(c2ccccc2)(c2ccccc2)N1"
result_units = "x10_2/uL"
endpoint_result = 108.2

[[record]]
molecule = "CNCCC(Oc1ccc(C(F)(F)F)cc1)c1ccccc1.Cl (stereo not given) [FLUOXETINE HYDROCHLORIDE]"
result_units = "x10_2/uL"
endpoint_result = 121.8

[[record]]
molecule = "C=CCO"
result_units = "x10_2/uL"
endpoint_result = 99.8

[[record]]
molecule = "CS(=O)(=O)Nc1ccc([N+](=O)[O-])cc1Oc1ccccc1 [NIMESULIDE]"
result_units = "x10_2/uL"
endpoint_result = 107.9

[[record]]
molecule = "Cn1cnc([N+](=O)[O-])c1Sc1ncnc2nc[nH]c12"
result_units = "x10_2/uL"
endpoint_result = 97.8

[[record]]
molecule = "Cc1cccc(Nc2cc(Cl)nc(SCC(=O)O)n2)c1C"
result_units = "x10_2/uL"
endpoint_result = 80.5

[[record]]
molecule = "S=C=Nc1cccc2ccccc12 [1-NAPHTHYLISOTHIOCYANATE]"
result_units = "x10_2/uL"
endpoint_result = 91.3

